Quick list: protein stability index per entry.
B1: ADD1 (parent)
chain: LRHSFQKQQREKTRWLNSGRGDEA

variants of: B1; experiment: protein stability index of a GFP-peptide fusion (GPS, HEK-293T) (PSI 1-6); higher = more stable; conditions: c terminus: a fixed tail appended;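 further: lentivirally expressed fusions sorted by FACS into six bins by GFP to DsRed ratio, PSI derived from sequencing read proportions per bin multiplied by bin number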
ASSAY READOUT: protein stability index

1) R14C; 2.68
2) Q9M; 3.84
3) D22Y; 2.78
4) L1D; 3.7
5) T13V; 3.26
6) L1Q; 3.78
7) G21R; 3.47
8) H3S; 4.03
9) R2M; 3.85
10) E23N; 3.73
11) E11C; 1.93
12) E11Q; 2.87

Reference source for all entries: the supplement of paper PMC10567573
